Reference for the values: the supplement of paper PMC10627819

Tested on: S. aureus DSM 20231;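 also: first quartile when negative (synergy) and third quartile when positive (antagonism)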
Experiment: Bliss interaction score (quartile over a dose matrix) (fitness difference); higher = more antagonism (negative = synergy)
metric_name: Bliss interaction score

CN(C)[C@@H]1C(O)=C(C(N)=O)C(=O)[C@@]2(O)C(O)=C3C(=O)c4c(O)ccc(Cl)c4[C@@](C)(O)[C@H]3C[C@@H]12 [Clortetracycline] + CO[C@@H]1[C@@H](OC(N)=O)[C@@H](O)[C@H](Oc2ccc3c(O)c(NC(=O)c4ccc(O)c(CC=C(C)C)c4)c(=O)oc3c2C)OC1(C)C [Novobiocin]; 0.104
CC(=O)Oc1ccccc1C(=O)O [Acetylsalicylicacid] + Oc1cc(Cl)ccc1Oc1ccc(Cl)cc1Cl [Triclosan]; -0.114
COc1ccc(C[C@H](N)C(=O)N[C@H]2[C@@H](O)[C@H](n3cnc4c(N(C)C)ncnc43)O[C@@H]2CO)cc1 [Puromycin] + CC1=C\[C@@H](O)CC(=O)Cc2nc(co2)C(=O)N2CCC=C2C(=O)O[C@H](C(C)C)[C@H](C)/C=C/C(=O)NC\C=C\1 [Virginiamycin M1]; 0.0808
